Data provenance is patent US20240059658A1.

Tested on: 855 line
PROTOCOL_TEXT: WST cytotoxicity assay, 855 line
Type: cell-based
REPORTED_CONDITIONS: read-out: Cancer cell cytotoxicity IC50
pIC50: −log10 of the molar value.
REPORTED_ENDPOINT: pIC50

>>> df
                                   molecule  reported_endpoint  data_value
0  Cc1ccc(NS(=O)(=O)c2ccc3c(c2)C2OCC[C@H]2C(c2cccc4ccccc24)N3)cc1C (stereo partly shown)              pIC50        5.22
1  Cc1ccc(NS(=O)(=O)c2ccc3c(c2)C2OCC[C@H]2[C@H](C2CCN(C(=O)OC(C)(C)C)CC2)N3)cc1C (stereo partly shown)              pIC50        5.87
2  COC(=O)c1ccc([C@H]2CC(O)c3cc(S(=O)(=O)Nc4ccc(C)c(C)c4)ccc3N2)cc1 (stereo partly shown)              pIC50        6.17
3  Cc1ccc(NS(=O)(=O)c2ccc3c(c2)C2OCC[C@H]2[C@H](C2CCOCC2)N3)cc1C (stereo partly shown)              pIC50        5.79
